src = paper PMC2248166

Task for the reader: assign each of the following sequences its reported Normalized average relative binding affinity(ARB).
molecular target: HLA B*5801 (Homo sapiens, UniProt P01889, A329T/C349S/D201E/D98Y/E176V/E187L/E204Q/E69T/G107R/I218V/I90N/K202T/L105A/L119I/N104I/N87E/Q89R/Q94S/R106L/R155S/R180L/R86G/S101N/S121R/S35A/S48A/T118I/V127L/V306I/V36M/Y140S/Y91M); assay type: binding
Give bare numbers.

Examples from the recorded data:
>>> test_result("XXXXXXXSX [3064.0156]")
0.31
>>> test_result("XXXXXXNXX [3064.0132]")
0.37
>>> test_result("XXXXVXXXX [3064.0098]")
1.0
>>> test_result("XXXXXXDXX [3064.0123]")
0.066
>>> test_result("XXXXSXXXX [3064.0096]")
0.31
>>> test_result("XXXTXXXXX [3064.0077]")
0.27
>>> test_result("XXXXXQXXX [3064.0114]")
0.57
>>> test_result("XXXXXTXXX [3064.0117]")
0.72

List reported Normalized average relative binding affinity(ARB) for each of these sequences:
1. XXXGXXXXX [3064.0066]
2. XXXXXXXGX [3064.0146]
3. XXXXPXXXX [3064.0093]
4. XXXXXVXXX [3064.0118]
5. XXXXDXXXX [3064.0083]

[0.21, 0.21, 0.19, 0.72, 0.11]

I have this sequence here, XXXFXXXXX [3064.0065] , and I need its recorded Normalized average relative binding affinity(ARB).
0.31
